# Read-out: Glutathione S-Transferase (GSTA2), GSTA2 (gene 2939)
# Protocol Notes: LTEA_HepaRG_GSTA2: Life Technologies and Expression Analysis (LTEA) Assay for Glutathione S-Transferase (GSTA2) using HepaRG (AID 2283497)
# Measurement Conditions: mRNA level, 48 h; actives raise or lower the signal
Activity calls are given as the source filed them. Rule for the calls: active = hit-call score of the fitted dose curve at least 0.9, where 1 is the maximum; inactive = score below 0.9.
Possible outcomes: active, inactive

Molecule | Assigned Label
CC(=O)O | inactive
O=C1NC(=O)C(c2ccccc2)(c2ccccc2)N1 | active
O=[Si]=O | inactive
O=C(O)CC(O)(CC(=O)O)C(=O)O | inactive
O=C1OC(c2ccc(O)cc2)(c2ccc(O)cc2)c2ccccc21 | active
NCCOCCOCCN | inactive
CC1(C)C(=O)NC(=O)N1CO | inactive
CC(=O)OCC(COC(C)=O)OC(C)=O | inactive
Cc1c(C)c2c(c(C)c1O)CCC(C)(COc1ccc(CC3SC(=O)NC3=O)cc1)O2 (stereo not drawn) | active
OCC(CO)n1cnc(-c2ccc(F)cc2)c1-c1ccnc(Oc2ccccc2)n1 | inactive
CCCCC(CC)CO (stereo not drawn) | inactive
O=C(O)CN(CC(=O)O)CC(=O)O | inactive
N[C@@H](Cc1c[nH]c2ccccc12)C(=O)O | inactive
CCCCC(CC)COC(=O)CCCCCCCC(=O)OCC(CC)CCCC (stereo not drawn) | inactive
C=CCc1ccc(OC)c(OC)c1 | inactive
CC(C)OC(=O)C(C)(C)Oc1ccc(C(=O)c2ccc(Cl)cc2)cc1 | inactive
O=C(N[C@@H](c1ccccc1)[C@@H]1CCCCN1)c1cccc(C(F)(F)F)c1Cl | active
S=c1[nH]c2ccccc2s1 | inactive
CN(C)C(=O)NC1(c2ccccc2)CCN(CCC[C@]2(c3ccc(Cl)c(Cl)c3)CCCN(C(=O)c3ccccc3)C2)CC1 | active
CCCCC(CC)COP(=O)(OCC(CC)CCCC)OCC(CC)CCCC (stereo not drawn) | inactive
CCCCCCCCCC[N+](C)(C)[O-] | inactive
Oc1ccc(O)cc1 | inactive
COC(=O)CCC(=O)OC | inactive
C/C=C/C=C/C(=O)O | inactive
Cc1occc(=O)c1O | inactive
Cc1cc(SC2=C(O)C[C@@](CCc3ccc(N)cc3)(C(C)C)OC2=O)c(C(C)(C)C)cc1CO | inactive
CC(=O)OC1CC(C)OC(C)O1 (stereo not drawn) | inactive
CC(N)=O | inactive
